Each recorded value in this set is attributed to the Immune Epitope Database (IEDB).

molecular target: HLA-A*29:02; assay: IEDB peptide-MHC binding, purified MHC/direct/fluorescence; filed as Kd, often an IC50 or EC50 that approximates it; bounds were set here for any values at or beyond the usual limits of such assays; settings: source organism: Zaire ebolavirus
Please go through the items and note down their Kd.

Q) Given HLSGWELAK , state its recorded Kd.
A) ≥ 20 µM

Q) Given RVPTVFHKK , state its recorded Kd.
A) ≥ 20 µM

Q) Given TVIYRGTTF , state its recorded Kd.
A) ≥ 20 µM

###

target: HLA-B*15:42; assay: IEDB peptide-MHC binding, purified MHC/competitive/fluorescence; filed as Kd, often an IC50 or EC50 that approximates it; bounds were set here for any values at or beyond the usual limits of such assays; conditions: source organism: Homo sapiens
valueKind: Kd

Q) Given RLPKDFVDL , state its recorded Kd.
A) ≥ 5 µM

###

biological target: HLA-B*46:01; assay: IEDB peptide-MHC binding, purified MHC/competitive/fluorescence; filed as Kd, often an IC50 or EC50 that approximates it; bounds were set here for any values at or beyond the usual limits of such assays; conditions: source organism: Burkholderia pseudomallei K96243
pKd: −log10 of the molar value.
valueKind: pKd

Q) Given SELTVSPPD , state its recorded pKd.
A) ≤ 4.70

###

target: HLA-B*58:01; test: IEDB peptide-MHC binding, purified MHC/direct/fluorescence; filed as Kd, often an IC50 or EC50 that approximates it; bounds were set here for any values at or beyond the usual limits of such assays; conditions: source organism: Rickettsia prowazekii
valueKind: Kd

Q) Given RRNRKALWL , state its recorded Kd.
A) ≥ 20 µM

###

target: HLA-B*53:01; assay: IEDB peptide-MHC binding, purified MHC/competitive/radioactivity; filed as Kd, often an IC50 or EC50 that approximates it; bounds were set here for any values at or beyond the usual limits of such assays; conditions: source organism: Mammarenavirus juninense
valueKind: pKd
// pKd: -log10(molar conc.)

Q) Given MPGVLSYVV , state its recorded pKd.
A) 6.73

###

molecular target: HLA-B*53:01; assay: IEDB peptide-MHC binding, purified MHC/competitive/radioactivity; filed as Kd, often an IC50 or EC50 that approximates it; bounds were set here for any values at or beyond the usual limits of such assays; details: source organism: Dengue virus 2 Jamaica/1409/1983
Please go through the items and note down their Kd.

Q) Given LMKITAEWLW , state its recorded Kd.
A) 1410 nM

Q) Given IAASIILEF , state its recorded Kd.
A) 26.1 nM

###

target: HLA-B*39:01; assay: IEDB peptide-MHC binding, purified MHC/competitive/fluorescence; filed as Kd, often an IC50 or EC50 that approximates it; bounds were set here for any values at or beyond the usual limits of such assays; conditions: source organism: Homo sapiens
pKd: −log10 of the molar value.
valueKind: pKd

Q) Given FMDPGIFPR , state its recorded pKd.
A) ≤ 4.70

Q) Given LTDSSTLLV , state its recorded pKd.
A) ≤ 4.70

###

target: HLA-B*18:01; experiment: IEDB peptide-MHC binding, purified MHC/direct/fluorescence; filed as Kd, often an IC50 or EC50 that approximates it; bounds were set here for any values at or beyond the usual limits of such assays; conditions: source organism: dengue virus type 2
valueKind: pKd
// pKd: -log10(molar conc.)

Q) Quick check: pKd on HLA-B*18:01, item EEEQTLTIL ?
A) 5.40

###

molecular target: HLA-B*07:02; test: IEDB peptide-MHC binding, purified MHC/competitive/radioactivity; filed as Kd, often an IC50 or EC50 that approximates it; bounds were set here for any values at or beyond the usual limits of such assays; conditions: source organism: Dengue virus 3 Martinique/1243/1999
valueKind: pKd
// pKd: -log10(molar conc.)

Q) Quick check: pKd on HLA-B*07:02, item LPVCQSSSM ?
A) 7.98

###

biological target: HLA-B*51:01; test: IEDB peptide-MHC binding, purified MHC/competitive/fluorescence; filed as Kd, often an IC50 or EC50 that approximates it; bounds were set here for any values at or beyond the usual limits of such assays; conditions: source organism: Salmonella enterica subsp. enterica serovar Typhi
pKd: −log10 of the molar value.
valueKind: pKd

Q) Given SVIDHIHYM , state its recorded pKd.
A) ≤ 4.70

###

molecular target: HLA-A*69:01; experiment: IEDB peptide-MHC binding, purified MHC/direct/fluorescence; filed as Kd, often an IC50 or EC50 that approximates it; bounds were set here for any values at or beyond the usual limits of such assays; settings: source organism: Vibrio parahaemolyticus
valueKind: Kd

Q) Given QYDDLHKKF , state its recorded Kd.
A) ≥ 20 µM

Q) Given ASEELMDKY , state its recorded Kd.
A) ≥ 20 µM

###

target: HLA-A*03:01; experiment: IEDB peptide-MHC binding, purified MHC/competitive/fluorescence; bounds were set here for any values at or beyond the usual limits of such assays; details: source organism: Vaccinia virus WR
valueKind: IC50 (µM)
Give just the numeric value; µM need not be written.

Q) Given SLFTEQAFY , state its recorded IC50.
A) 7.04

###

target: HLA-A*68:02; assay: IEDB peptide-MHC binding, purified MHC/competitive/radioactivity; filed as Kd, often an IC50 or EC50 that approximates it; bounds were set here for any values at or beyond the usual limits of such assays; conditions: source organism: Vaccinia virus WR
valueKind: Kd
Remember to follow the number with its unit.

Q) Given YVNAILYQI , state its recorded Kd.
A) 1.86 µM

###

target: HLA-A*24:02; experiment: IEDB peptide-MHC binding, purified MHC/competitive/radioactivity; filed as Kd, often an IC50 or EC50 that approximates it; bounds were set here for any values at or beyond the usual limits of such assays; details: source organism: Dengue virus 3 Singapore/8120/1995
valueKind: Kd (nM)
Give just the numeric value; nM need not be written.

Q) Given LWMADVPLQW , state its recorded Kd.
A) 24.3

###

molecular target: HLA-B*48:01; experiment: IEDB peptide-MHC binding, purified MHC/competitive/fluorescence; filed as Kd, often an IC50 or EC50 that approximates it; bounds were set here for any values at or beyond the usual limits of such assays; conditions: source organism: Escherichia coli str. K-12 substr. DH10B
pKd: −log10 of the molar value.
valueKind: pKd

Q) Quick check: pKd on HLA-B*48:01, item QVIFKCVPK ?
A) ≤ 4.70

###

target: HLA-A*26:01; experiment: IEDB peptide-MHC binding, purified MHC/direct/fluorescence; filed as Kd, often an IC50 or EC50 that approximates it; bounds were set here for any values at or beyond the usual limits of such assays; conditions: source organism: Ravn virus - Ravn, Kenya, 1987
valueKind: Kd

Q) Given GEGSGARLL , state its recorded Kd.
A) ≥ 20 µM

###

molecular target: HLA-A*11:01; experiment: IEDB peptide-MHC binding, purified MHC/direct/fluorescence; filed as Kd, often an IC50 or EC50 that approximates it; bounds were set here for any values at or beyond the usual limits of such assays; conditions: source organism: Aggregatibacter actinomycetemcomitans
valueKind: Kd

Q) Quick check: Kd on HLA-A*11:01, item KYDDRIQSQ ?
A) ≥ 20 µM

###

target: HLA-B*15:01; experiment: IEDB peptide-MHC binding, purified MHC/direct/fluorescence; filed as Kd, often an IC50 or EC50 that approximates it; bounds were set here for any values at or beyond the usual limits of such assays; details: source organism: Influenza A virus (A/Puerto Rico/8/34/Mount Sinai(H1N1))
valueKind: pKd
// pKd: -log10(molar conc.)

Q) Given YSHGTGTGY , state its recorded pKd.
A) 7.00

Q) Given VAGGTSSVY , state its recorded pKd.
A) 6.89

Q) Given EKFFPSSSY , state its recorded pKd.
A) 5.95

###

target: HLA-B*46:01; experiment: IEDB peptide-MHC binding, purified MHC/competitive/fluorescence; filed as Kd, often an IC50 or EC50 that approximates it; bounds were set here for any values at or beyond the usual limits of such assays; settings: source organism: Entamoeba histolytica HM-1:IMSS
valueKind: Kd

Q) Quick check: Kd on HLA-B*46:01, item RSLVCLAPK ?
A) ≥ 20 µM

###

molecular target: HLA-A*03:01; test: IEDB peptide-MHC binding, purified MHC/direct/fluorescence; filed as Kd, often an IC50 or EC50 that approximates it; bounds were set here for any values at or beyond the usual limits of such assays; details: source organism: Mycobacterium tuberculosis
pKd: −log10 of the molar value.
valueKind: pKd

Q) Quick check: pKd on HLA-A*03:01, item FHVNPAFVL ?
A) ≤ 4.70

Q) Quick check: pKd on HLA-A*03:01, item RPRCAYLPF ?
A) ≤ 4.70

Q) Quick check: pKd on HLA-A*03:01, item YPARVKCAL ?
A) ≤ 4.70

###

molecular target: HLA-B*46:01; assay: IEDB peptide-MHC binding, purified MHC/direct/fluorescence; filed as Kd, often an IC50 or EC50 that approximates it; bounds were set here for any values at or beyond the usual limits of such assays; settings: source organism: Yersinia pestis Nepal516
valueKind: Kd

Q) Given WLWVSSSDM , state its recorded Kd.
A) ≥ 20 µM
